Where do the numbers come from? From patent US8895613B2.

# TEST TARGET: neuraminidase of influenza virus A/California/07/09 (H1N1) (Influenza A virus, UniProt C3W6G3)
# Format: biochemical
# PARTICULARS: read-out: IC50, nM (number of experiments)
RECORDED METRIC: IC50

> print(dat)
                         structure.notation  recorded.metric   result
1  CCC(CC)O[C@@H]1C=C(C(=O)O)C[C@H](NC(=N)N)[C@H]1NC(=O)CF             IC50  0.18 nM

* * *

# TEST TARGET: neuraminidase of influenza virus B/Brisbane/60/2008 (Influenza B virus)
# Format: biochemical
# PARTICULARS: read-out: IC50, nM (number of experiments)
RECORDED METRIC: IC50 (nM)

> print(dat)
                         structure.notation  readout.number
1  CCC(CC)O[C@@H]1C=C(C(=O)O)C[C@H](NC(=N)N)[C@H]1NC(=O)CF            1.27

* * *

# TEST TARGET: neuraminidase of influenza virus A/Aichi/2/69 (H3N2) (Influenza A virus, UniProt Q75VQ4)
# Type: biochemical
# PARTICULARS: read-out: IC50, nM (number of experiments)
RECORDED METRIC: IC50 (nM)

> print(dat)
                         structure.notation                               test.target  readout.number
1  CCC(CC)O[C@@H]1C=C(C(=O)O)C[C@H](NC(=N)N)[C@H]1NC(=O)CF  neuraminidase of influenza virus A/Aichi/2/69 (H3N2) (Influenza A virus, UniProt Q75VQ4)            0.69
